System: human maximum recommended daily dose, FDA database
Assay: DSSTox (FDAMDD) FDA Maximum (Recommended) Daily Dose Database
Details: TherapeuticCategory: antibacterial; stronger effect = lower value
Lab note: anything with maximum recommended daily dose (mmol/kg-bw/day) below 0.09 is marked rule met; values at 0.09 or higher are marked rule not met.

inputSmiles	labelValue
Cn1nnnc1SCC1=C(C(=O)O)N2C(=O)[C@@H](NC(=O)[C@H](OC=O)c3ccccc3)[C@H]2SC1	rule not met
Cc1noc(NS(=O)(=O)c2ccc(N)cc2)c1C	rule not met
Cn1nnnc1SCC1=C(C(=O)O)N2C(=O)[C@@H](NC(=O)[C@H](O)c3ccccc3)[C@H]2SC1	rule not met
O=C(Cn1cnnn1)N[C@@H]1C(=O)N2C(C(=O)O)=C(CSc3nncs3)CS[C@H]12	rule not met

Quick check: maximum recommended daily dose (mmol/kg-bw/day) of NCC[C@H](O)C(=O)N[C@@H]1C[C@H](N)[C@@H](O[C@H]2O[C@H](CN)[C@@H](O)[C@H](O)[C@H]2O)[C@H](O)[C@H]1O[C@H]1O[C@H](CO)[C@@H](O)[C@H](N)[C@H]1O under 0.09?
rule met

Quick check: maximum recommended daily dose (mmol/kg-bw/day) of C[C@@H]1CN(c2c(F)c(N)c3c(=O)c(C(=O)O)cn(C4CC4)c3c2F)C[C@H](C)N1 under 0.09?
rule met

Quick check: maximum recommended daily dose (mmol/kg-bw/day) of CCC(=O)O[C@H]1[C@H](O[C@@H]2[C@@H](C)[C@H](O[C@H]3C[C@@](C)(OC)[C@@H](O)[C@H](C)O3)[C@@H](C)C(=O)O[C@H](CC)[C@@](C)(O)[C@H](O)[C@@H](C)C(=O)[C@H](C)C[C@@]2(C)O)O[C@H](C)C[C@@H]1N(C)C under 0.09?
rule met

Quick check: maximum recommended daily dose (mmol/kg-bw/day) of CC1(C)S[C@@H]2[C@H](NC(=O)[C@H](N)c3ccccc3)C(=O)N2[C@H]1C(=O)O under 0.09?
rule not met

Quick check: maximum recommended daily dose (mmol/kg-bw/day) of CC1(C)S[C@@H]2[C@H](N=CN3CCCCCC3)C(=O)N2[C@H]1C(=O)O under 0.09?
rule met

Quick check: maximum recommended daily dose (mmol/kg-bw/day) of CC1(C)S[C@@H]2[C@H](NC(=O)COc3ccccc3)C(=O)N2[C@H]1C(=O)O under 0.09?
rule met

###

Test system: human maximum recommended daily dose, FDA database
Assay: DSSTox (FDAMDD) FDA Maximum (Recommended) Daily Dose Database
Conditions: TherapeuticCategory: antihypertensive; stronger effect = lower value
Lab note: anything with maximum recommended daily dose (mmol/kg-bw/day) below 0.0008 is marked y; values at 0.0008 or higher are marked n.

Observe how each entry below is paired with its result.
> print(dat)
                                   compound  labelvalue
1  CCOc1nc2cccc(C(=O)O)c2n1Cc1ccc(-c2ccccc2-c2nn[nH]n2)cc1           y
2                   Clc1cccc(Cl)c1NC1=NCCN1           y
3                       NC(N)=NCCN1CCCCCCC1           n

Quick check: maximum recommended daily dose (mmol/kg-bw/day) of CCC(C)(C)N=C(N)NC#N under 0.0008?
n

Quick check: maximum recommended daily dose (mmol/kg-bw/day) of O=C(c1ccc(F)cc1)C1CCN(CCn2c(=O)[nH]c3ccccc3c2=O)CC1 under 0.0008?
n

Quick check: maximum recommended daily dose (mmol/kg-bw/day) of COC(=O)[C@H]1[C@H]2C[C@@H]3c4[nH]c5ccccc5c4CCN3C[C@H]2C[C@@H](OC(=O)c2cc(OC)c(OC)c(OC)c2)[C@@H]1OC under 0.0008?
y

Quick check: maximum recommended daily dose (mmol/kg-bw/day) of Cc1cc2c(OCC(CNC(C)(C)C)OC(=O)c3ccccc3)cccc2[nH]1 (configuration not stated) under 0.0008?
y

Quick check: maximum recommended daily dose (mmol/kg-bw/day) of COC(=O)[C@H]1[C@H]2C[C@@H]3c4[nH]c5cc(OC)ccc5c4CCN3C[C@H]2C[C@@H](OC(=O)c2cc(OC)c(OC)c(OC)c2)[C@@H]1OC under 0.0008?
y

Quick check: maximum recommended daily dose (mmol/kg-bw/day) of C[C@H](CSC(=O)[C@@H](C)NC(=O)C1CCCCC1)C(=O)N1CCC[C@H]1C(=O)O under 0.0008?
n
